Recorded values, source patent US20180289678A1.

method: Study .5: single dose study in healthy Japanese volunteers, pharmacokinetic parameters
Type: in vivo, human
stated conditions: human, plasma, oral, 5 mg, 5 mg single dose, Study .5, fasted; read-out: Cmax gMean
attribute measured: Cmax
Field: value (include unit after the number)

Fill in the blank: the reported Cmax of OC[C@H]1O[C@@H](c2ccc(Cl)c(Cc3ccc(O[C@H]4CCOC4)cc3)c2)[C@H](O)[C@@H](O)[C@@H]1O is ____.
161 nM

* * *

method: Study .3: single dose, cross-over, food effect study in healthy volunteers, pharmacokinetic parameters
Format: in vivo, human
stated conditions: human, plasma, oral, 50 mg, 50 mg single dose, Study .3/fasted; read-out: Cmax gMean
attribute measured: Cmax
Field: value (include unit after the number)

Fill in the blank: the reported Cmax of OC[C@H]1O[C@@H](c2ccc(Cl)c(Cc3ccc(O[C@H]4CCOC4)cc3)c2)[C@H](O)[C@@H](O)[C@@H]1O is ____.
1140 nM

* * *

method: Study .5: single dose study in healthy Japanese volunteers, pharmacokinetic parameters
Format: in vivo, human
stated conditions: human, plasma, oral, 25 mg, 25 mg single dose, Study .5, fasted; read-out: Cmax Mean
attribute measured: Cmax (µM)
Give bare numbers, in µM.

Fill in the blank: the reported Cmax of OC[C@H]1O[C@@H](c2ccc(Cl)c(Cc3ccc(O[C@H]4CCOC4)cc3)c2)[C@H](O)[C@@H](O)[C@@H]1O is ____.
0.661

* * *

method: Study .3: single dose, cross-over, food effect study in healthy volunteers, pharmacokinetic parameters
Assay type: in vivo, human
stated conditions: human, plasma, oral, 50 mg, 50 mg single dose, Study .3/fed; read-out: tmax Mean
attribute measured: Tmax (h)
Answers are plain numbers, in h.

Fill in the blank: the reported Tmax of OC[C@H]1O[C@@H](c2ccc(Cl)c(Cc3ccc(O[C@H]4CCOC4)cc3)c2)[C@H](O)[C@@H](O)[C@@H]1O is ____.
2.46

* * *

method: Study .1: single dose study in healthy volunteers, pharmacokinetic parameters
Assay type: in vivo, human
stated conditions: human, plasma, oral, 50 mg, 50 mg single dose, Study .1, fasted; read-out: AUC0-inf Mean
attribute measured: AUC(0-inf)
Field: value (include unit after the number)

Fill in the blank: the reported AUC(0-inf) of OC[C@H]1O[C@@H](c2ccc(Cl)c(Cc3ccc(O[C@H]4CCOC4)cc3)c2)[C@H](O)[C@@H](O)[C@@H]1O is ____.
8.58 µM·h

* * *

method: Pharmacokinetic profile in fasting humans, ranges over Studies .1 to .5
Assay type: in vivo
stated conditions: human, plasma, oral, 50 mg, single dose of 50.0 mg, read-out: geometric mean Cmax
attribute measured: Cmax

Fill in the blank: the reported Cmax of OC[C@H]1O[C@@H](c2ccc(Cl)c(Cc3ccc(O[C@H]4CCOC4)cc3)c2)[C@H](O)[C@@H](O)[C@@H]1O [Compound (I.9)] is ____.
1080 to 1140 nM

* * *

method: Study .5: single dose study in healthy Japanese volunteers, pharmacokinetic parameters
Format: in vivo, human
stated conditions: human, plasma, oral, 5 mg, 5 mg single dose, Study .5, fasted; read-out: AUC0-inf gMean
attribute measured: AUC(0-inf) (µM·h)
Numbers only, in µM·h.

Fill in the blank: the reported AUC(0-inf) of OC[C@H]1O[C@@H](c2ccc(Cl)c(Cc3ccc(O[C@H]4CCOC4)cc3)c2)[C@H](O)[C@@H](O)[C@@H]1O is ____.
1.14

* * *

method: Study .2: multiple rising dose trial in diabetic patients, once daily for 8 days, pharmacokinetic parameters
Type: in vivo, human
stated conditions: 2.5 mg single dose, Study .2, fasted; read-out: Cmax Mean
attribute measured: Cmax (nM)
One number for each entry, in nM.

Fill in the blank: the reported Cmax of OC[C@H]1O[C@@H](c2ccc(Cl)c(Cc3ccc(O[C@H]4CCOC4)cc3)c2)[C@H](O)[C@@H](O)[C@@H]1O [Compound (I.9)] is ____.
62.4

* * *

method: Study .5: single dose study in healthy Japanese volunteers, pharmacokinetic parameters
Assay type: in vivo, human
stated conditions: human, plasma, oral, 25 mg, 25 mg single dose, Study .5, fasted; read-out: tmax gMean
attribute measured: Tmax (h)
Numbers only, in h.

Fill in the blank: the reported Tmax of OC[C@H]1O[C@@H](c2ccc(Cl)c(Cc3ccc(O[C@H]4CCOC4)cc3)c2)[C@H](O)[C@@H](O)[C@@H]1O is ____.
2.14

* * *

method: Pharmacokinetic profile in fasting humans, ranges over Studies .1 to .5
Type: in vivo
stated conditions: human, plasma, oral, 2.5 mg, single dose of 2.5 mg, read-out: geometric mean Cmax
attribute measured: Cmax

Fill in the blank: the reported Cmax of OC[C@H]1O[C@@H](c2ccc(Cl)c(Cc3ccc(O[C@H]4CCOC4)cc3)c2)[C@H](O)[C@@H](O)[C@@H]1O is ____.
52.9 to 61.3 nM

* * *

method: Study .1: single dose study in healthy volunteers, pharmacokinetic parameters
Type: in vivo, human
stated conditions: human, plasma, oral, 25 mg, 25 mg single dose, Study .1, fasted; read-out: AUC0-inf Mean
attribute measured: AUC(0-inf) (µM·h)
Numbers only, in µM·h.

Fill in the blank: the reported AUC(0-inf) of OC[C@H]1O[C@@H](c2ccc(Cl)c(Cc3ccc(O[C@H]4CCOC4)cc3)c2)[C@H](O)[C@@H](O)[C@@H]1O is ____.
3.83

* * *

method: Study .4: 4-week treatment of diabetic patients, once daily, pharmacokinetic parameters
Format: in vivo, human
stated conditions: human, plasma, oral, 25 mg, 25 mg once daily, steady state, Study .4, fasted; read-out: AUCτ,ss Mean
attribute measured: AUC (µM·h)
Answers are plain numbers, in µM·h.

Fill in the blank: the reported AUC of OC[C@H]1O[C@@H](c2ccc(Cl)c(Cc3ccc(O[C@H]4CCOC4)cc3)c2)[C@H](O)[C@@H](O)[C@@H]1O [Compound (I.9)] is ____.
4.74

* * *

method: Study .4: 4-week treatment of diabetic patients, once daily, pharmacokinetic parameters
Format: in vivo, human
stated conditions: human, plasma, oral, 10 mg, 10 mg single dose, Study .4, fasted; read-out: tmax gMean
attribute measured: Tmax (h)
Numbers only, in h.

Fill in the blank: the reported Tmax of OC[C@H]1O[C@@H](c2ccc(Cl)c(Cc3ccc(O[C@H]4CCOC4)cc3)c2)[C@H](O)[C@@H](O)[C@@H]1O [Compound (I.9)] is ____.
1.44

* * *

method: Pharmacokinetic profile in fasting humans, ranges over Studies .1 to .5
Type: in vivo
stated conditions: human, plasma, oral, 25 mg, dose of 25.0 mg, read-out: AUC
attribute measured: AUC

Fill in the blank: the reported AUC of OC[C@H]1O[C@@H](c2ccc(Cl)c(Cc3ccc(O[C@H]4CCOC4)cc3)c2)[C@H](O)[C@@H](O)[C@@H]1O [Compound (I.9)] is ____.
2.66 to 7.64 µM·h

* * *

method: Pharmacokinetic profile in fasting humans, ranges over Studies .1 to .5
Assay type: in vivo
stated conditions: human, plasma, oral, 2.5 mg, single dose of 2.5 mg, read-out: geometric mean AUC0-inf
attribute measured: AUC(0-inf)

Fill in the blank: the reported AUC(0-inf) of OC[C@H]1O[C@@H](c2ccc(Cl)c(Cc3ccc(O[C@H]4CCOC4)cc3)c2)[C@H](O)[C@@H](O)[C@@H]1O [Compound (I.9)] is ____.
0.394 to 0.468 µM·h

* * *

method: Study .2: multiple rising dose trial in diabetic patients, once daily for 8 days, pharmacokinetic parameters
Format: in vivo, human
stated conditions: human, plasma, oral, 2.5 mg, 2.5 mg single dose, Study .2, fasted; read-out: tmax gMean
Description: 5. Pharmacokinetic Parameters The pharmacokinetic parameters of pharmaceutical compositions and pharmaceutical dosage forms are assessed in healthy volunteer and patient populations. […] For the quantification of plasma concentrations of the active ingredient, 2.7 mL of blood was collected and transferred into an EDTA (ethylendiaminetetraacetic acid)-anticoagulant blood drawing tube. […] Concentrations of active substance in EDTA human plasma samples were quantitated using a HPLC/MS/MS method. […]
attribute measured: Tmax (h)
One number for each entry, in h.

Fill in the blank: the reported Tmax of OC[C@H]1O[C@@H](c2ccc(Cl)c(Cc3ccc(O[C@H]4CCOC4)cc3)c2)[C@H](O)[C@@H](O)[C@@H]1O is ____.
1.37

* * *

method: Study .2: multiple rising dose trial in diabetic patients, once daily for 8 days, pharmacokinetic parameters
Format: in vivo, human
stated conditions: human, plasma, oral, 25 mg, 25 mg single dose, Study .2, fasted; read-out: AUC0-inf Mean
Procedure: 5. Pharmacokinetic Parameters The pharmacokinetic parameters of pharmaceutical compositions and pharmaceutical dosage forms are assessed in healthy volunteer and patient populations. […] For the quantification of plasma concentrations of the active ingredient, 2.7 mL of blood was collected and transferred into an EDTA (ethylendiaminetetraacetic acid)-anticoagulant blood drawing tube. […] Concentrations of active substance in EDTA human plasma samples were quantitated using a HPLC/MS/MS method. […]
attribute measured: AUC(0-inf) (µM·h)
One number for each entry, in µM·h.

Fill in the blank: the reported AUC(0-inf) of OC[C@H]1O[C@@H](c2ccc(Cl)c(Cc3ccc(O[C@H]4CCOC4)cc3)c2)[C@H](O)[C@@H](O)[C@@H]1O is ____.
4.9
